Molecular target: DNA repair protein RAD52 homolog (Homo sapiens, UniProt P43351)
Sequence (P43351 whole entry): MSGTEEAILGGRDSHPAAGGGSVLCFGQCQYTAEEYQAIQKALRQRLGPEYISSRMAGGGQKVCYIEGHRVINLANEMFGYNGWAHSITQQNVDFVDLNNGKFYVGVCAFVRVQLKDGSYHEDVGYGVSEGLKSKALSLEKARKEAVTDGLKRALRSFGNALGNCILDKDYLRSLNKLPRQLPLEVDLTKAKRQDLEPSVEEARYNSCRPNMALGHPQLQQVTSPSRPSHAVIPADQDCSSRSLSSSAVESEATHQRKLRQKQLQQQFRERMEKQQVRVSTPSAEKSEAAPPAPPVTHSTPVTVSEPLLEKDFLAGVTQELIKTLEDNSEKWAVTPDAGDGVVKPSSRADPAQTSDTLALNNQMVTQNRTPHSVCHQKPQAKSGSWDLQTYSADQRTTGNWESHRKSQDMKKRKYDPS
Type: functional, biochemical
Active and inactive are the calls of the source.
Would you kindly list AC50 for each of these compounds?

# example entries with known answers
In [3]: df
Out[3]:
                                   compound  property_measured  experimental_value
0    COc1ccc(/C=N/Nc2cc(C)nc3c(C)cccc23)cc1               AC50    2.28 µM (active)
1         CN(C)CCNc1cc(-c2ccncc2)nc2ccccc12               AC50    4.09 µM (active)
2  CCN1CCN(CCCNC(=O)c2ccc(/C=C3/Sc4ccccc4N(Cc4ccccc4F)C3=O)cc2)CC1               AC50    8.67 µM (active)
3  COc1ccc(-c2cc(NC=O)c3ncc(-c4cccc(C(=O)NCCN(C)C)c4)n3c2)c(OC)c1               AC50    2.55 µM (active)

Here is another compound to look at.
Entry under test: CN1CCN(CCCN2c3ccccc3Sc3ccc(Cl)cc32)CC1 [PROCHLORPERAZINE EDISYLATE] . Its AC50 was 17.6 µM (active)

====

Biological target: UniProt Q96LD8
Sequence (Q96LD8 whole entry): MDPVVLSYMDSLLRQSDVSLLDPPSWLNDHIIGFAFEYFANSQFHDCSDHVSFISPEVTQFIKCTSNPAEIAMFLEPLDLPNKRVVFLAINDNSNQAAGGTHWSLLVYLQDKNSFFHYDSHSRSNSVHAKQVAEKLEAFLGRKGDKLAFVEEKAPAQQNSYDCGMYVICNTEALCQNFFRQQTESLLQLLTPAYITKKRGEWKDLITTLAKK
Format: functional
The source made the active and inactive calls.
API: response.call in true (1) for active, false (0) for inactive

Example cases with answers are listed next.
In [3]: df
Out[3]:
                                   compound  label_value
0  O=C(O)c1ccc(N/N=C/c2ccc(OC(=O)c3ccccc3Cl)cc2)cc1     true (1)
1  Cc1ccc2c(c1)c(=O)c1c3n2CCN(C(=O)CCl)C3CC1 (stereo not given)     true (1)
2           Cc1ccc(C)c(-c2nc3cc(N)ccc3o2)c1     true (1)

Can you look up the reported call for NC(=O)C1CCN(C2=C(Cl)C(=O)c3ccccc3C2=O)CC1 for me?
true (1)

I would be grateful if you could indicate the recorded call for O=C(O)COc1ccccc1/C=N/NC(=O)CSc1nnc(SCc2ccc(Cl)cc2)s1 .
false (0)

====

Field: EC50. Provide a value for each of the compounds that follow.
Biological target: Mu-type opioid receptor (Homo sapiens, UniProt P35372);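 note: U2OS cells with beta-arrestin recruitment to OPRM1 by beta-gal complementation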
Sequence (P35372 whole entry): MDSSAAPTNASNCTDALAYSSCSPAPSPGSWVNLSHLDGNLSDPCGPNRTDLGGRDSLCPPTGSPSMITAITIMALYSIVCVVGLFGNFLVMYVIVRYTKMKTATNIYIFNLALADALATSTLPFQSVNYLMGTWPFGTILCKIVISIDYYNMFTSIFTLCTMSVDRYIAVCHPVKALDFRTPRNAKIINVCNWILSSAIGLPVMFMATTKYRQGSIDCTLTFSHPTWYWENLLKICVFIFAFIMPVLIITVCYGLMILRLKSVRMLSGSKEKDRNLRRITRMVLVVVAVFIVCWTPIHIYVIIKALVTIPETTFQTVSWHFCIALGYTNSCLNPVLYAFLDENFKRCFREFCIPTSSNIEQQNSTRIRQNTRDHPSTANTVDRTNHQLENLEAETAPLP
Type: functional, cell-based
Activity calls are given as the source filed them.

In [3]: df
Out[3]:
                            smiles_notation                                 tested_on  property_measured  experimental_value
0  O=[N+]([O-])c1cccnc1N1CCN(Cc2ccc3c(c2)OCO3)CC1  Mu-type opioid receptor (Homo sapiens, UniProt P35372)               EC50  92.5 µM (inactive)
1        CCOC(=O)N1CCN(Cc2ccc3c(c2)OCO3)CC1  Mu-type opioid receptor (Homo sapiens, UniProt P35372)               EC50  92.4 µM (inactive)
2      COc1cccc(-c2nc(NC(C)C)c3ccccc3n2)c1O  Mu-type opioid receptor (Homo sapiens, UniProt P35372)               EC50  92.5 µM (inactive)

# compound Cc1ccc(CN2CCN(c3ncccn3)CC2)o1 ; its EC50 = 92.4 µM (inactive)

====

Provide the recorded IC50 for the entries that follow.
Target: DNA dC->dU-editing enzyme APOBEC-3G (Homo sapiens)
Sequence (Q9HC16 whole entry): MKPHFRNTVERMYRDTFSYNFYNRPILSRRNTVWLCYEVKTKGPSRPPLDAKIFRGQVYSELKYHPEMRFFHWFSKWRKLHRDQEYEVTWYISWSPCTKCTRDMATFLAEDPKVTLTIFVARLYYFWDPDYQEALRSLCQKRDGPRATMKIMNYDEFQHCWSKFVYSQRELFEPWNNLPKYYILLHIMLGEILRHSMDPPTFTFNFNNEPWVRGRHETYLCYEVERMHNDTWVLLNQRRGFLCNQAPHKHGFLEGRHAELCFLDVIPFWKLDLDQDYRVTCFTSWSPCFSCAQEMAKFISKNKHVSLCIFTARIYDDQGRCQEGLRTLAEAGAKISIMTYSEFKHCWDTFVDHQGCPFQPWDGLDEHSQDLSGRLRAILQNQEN
Test: Dose Response confirmation of small molecule APOBEC3G DNA Deaminase Inhibitors via a fluorescence-based single-stranded DNA deaminase assay. [Related pubchem assays (depositor defined):AID493012, AID493028]
Type: functional
The source made the active and inactive calls.

Solved entries:
In [3]: df
Out[3]:
                                   compound  experimental_value
0  S=c1[nH]nc(C2COc3ccccc3O2)[nH]1 (configuration not stated)    4.34 µM (active)
1        COC(=O)CCC(=O)Nc1sc(C)c(C)c1C(N)=O    38.2 µM (active)
2                 Cc1ccsc1-c1nnc(S)n1CC(C)C     5.9 µM (active)
3  CCOCCCn1/c(=N/C(=O)c2cccnc2)c(C(=O)OCC)cc2c(=O)n3ccccc3nc21    41.3 µM (active)
4         Cc1ccc(/C=N/n2c(S)nnc2-c2ccco2)s1    1.55 µM (active)
5  O=C1CC(Sc2nc[nH]n2)C(=O)N1c1ccccc1 (configuration not stated)    55.7 µM (active)

For this compound ( O=C1C=CC(=O)N1c1ccc(N2CCCCC2)cc1 ), measured IC50 is 7.13 µM (active)
